- System: HL60 cells
- Format: cell-based, human
- assay conditions: 72 h
Where no end group is shown, it is not given here.
measurement label: pEC50
Reminder that pEC50 is minus the log10 of a molar concentration.

Find the measured pEC50: item LSFLIPAGWVLSHLDHYKRSSAA-OH [COSP-1] , target or system HL60 cells.
6.57
